// each record: one item and its pIC50 for UniProtKB O75116
Just so you know, pIC50 here is -log10 of the concentration in molar units; reply with that number alone.

Field: example entries. Status: answers known.
O=C(NC1CCCN(c2ccncc2)C1)c1cc2ccc(-c3nccc(Nc4ccc5[nH]ncc5c4)n3)cc2[nH]1 (stereo not drawn) : 8.30
O=C(CC1CCOC1)N1Cc2ccc(-c3nccc(Nc4ccc(-c5cn[nH]c5)cc4)n3)cc2C1 (stereo not drawn) [TDI01597B] : 6.91

Tell me reported pIC50 for O=C(c1cc2ccc(-c3nccc(Nc4ccc(-c5cn[nH]c5)cc4)n3)cc2[nH]1)N1CCS(=O)(=O)CC1 , tested with UniProtKB O75116.
6.50

---

Quick record of IC50 values for ROCK1 (Homo sapiens (Human)).
Report as a plain number; the unit µM is understood.

As a guide, the following entries are already answered.
CNC(=O)c1cc2ccc(-c3nc(Nc4ccc5[nH]ncc5c4)c4sccc4n3)cc2[nH]1 [TDI01405] : 4.06
CN(C(=O)c1cc2ccc(-c3nccc(Nc4ccc(-c5cn[nH]c5)cc4)n3)cc2[nH]1)C1CCNC1 (stereo not shown) [TDI01345] : 3.91
O=C(c1cc2ccc(-c3nccc(Nc4ccc(-c5cn[nH]c5)cc4)n3)cc2[nH]1)N1CCC(F)C1 (stereo not shown) [TDI01473] : 0.592

Now consider a different molecule.
I have this molecule here, CC(C)NC(=O)c1cc2ccc(-c3nc(Nc4ccc5[nH]ncc5c4)c4sccc4n3)cc2s1 [TDI01136] , and I need its recorded IC50.
0.827

---

# TARGET OR TEST SYSTEM: ROCK2 (Homo sapiens, UniProt O75116)
Reported IC50 values for the following compounds.
Lab book: enter the figure in nM, no units written.

What measured IC50 goes with Cn1c(C(=O)N2C[C@@H](O)[C@H](F)C2)cc2ccc(-c3nccc(Nc4ccc(-c5cn[nH]c5)cc4)n3)cc21 [TDI01518] ?
78

Field request: IC50 | item: O=C(c1cc2ccc(-c3nccc(Nc4ccc(-c5cn[nH]c5)cc4)n3)cc2[nH]1)N1CC(O)C1 [TDI01437]
247

Which IC50 is listed for O=C(c1cc2ccc(-c3nccc(Nc4ccc(-c5cn[nH]c5)cc4)n3)cc2[nH]1)N1CCC(F)(F)CC1 [TDI01485] ?
276

So what's the measured IC50 for this one? Cn1c(C(=O)N2CC(F)(F)C2)cc2ccc(-c3ncnc(Nc4ccc(-c5cn[nH]c5)cc4)n3)cc21 [TDI01532]
49

Need IC50 of O=C(NCC(F)(F)F)c1cc2ccc(-c3nccc(Nc4ccc(-c5cn[nH]c5)cc4)n3)cc2s1 [TDI01456] , thanks.
15

Give the measured IC50 of CC(C)NC(=O)c1cc2ccc(-c3nc(Nc4ccc(-c5cn[nH]c5)cc4)cc(OCCN(C)C)n3)cc2[nH]1 [TDI01865] .
400

Could you share which IC50 value was measured for O=C(c1cc2ccc(-c3nc(Nc4ccc(-c5cn[nH]c5)cc4)c4sccc4n3)cc2[nH]1)N1CCOCC1 [TDI01450] ?
453

---

# TARGET OR TEST SYSTEM: ROCK2 (Homo sapiens)
pIC50: −log10 of the molar value.
Is pIC50 at least 7? Then 1 (yes). If not, 0 (no).

hey, is pIC50 for this one >= 7? O=C(c1cc2ccc(-c3nccc(Nc4ccc(-c5cn[nH]c5)cc4)n3)cc2[nH]1)N1CCC(F)(F)C1
1 (yes)

Can Cn1c(C(=O)N2CCC(O)(C(F)(F)F)C2)cc2ccc(-c3nccc(Nc4ccc(-c5cn[nH]c5)cc4)n3)cc21 (stereo not drawn) be said to have pIC50 at or above 7?
0 (no)

I'd appreciate it if you could say whether COc1cc(Nc2ccnc(-c3ccc4cc(C(=O)N(C)C)[nH]c4c3)n2)ccc1-c1cn[nH]c1 has pIC50 at least equal to 7.
0 (no)

Reported pIC50 reaches at least 7 for Cn1c(C(=O)N2CCC3(C2)CC3(F)F)cc2ccc(-c3nccc(Nc4ccc(-c5cn[nH]c5)cc4)n3)cc21 (stereo not drawn) ?
0 (no)

Is pIC50 for O=C(OC1CC(F)(F)C1)N1Cc2ccc(-c3ncc(F)c(Nc4ccc5[nH]ncc5c4)n3)cc2C1 at or above 7?
1 (yes)

# bool: pIC50 of O=C(OC1CCNC1)N1Cc2ccc(-c3nccc(Nc4ccc(-c5cn[nH]c5)cc4)n3)cc2C1 (stereo not drawn) >= 7
1 (yes)

Is it the case that O=C(c1cc2ccc(-c3nccc(Nc4ccc(-c5cn[nH]c5)cc4)n3)cc2[nH]1)N1CC(=NO)C1 has pIC50 reaching or exceeding 7?
0 (no)

Is reported pIC50 greater than or equal to 7 here: COc1cc(Nc2ccnc(-c3ccc4cc(-c5nccs5)[nH]c4c3)n2)ccc1-c1cn[nH]c1
1 (yes)

Tell me whether pIC50 is at least 7 here: O=C(NC1CCCN(C2CCOCC2)C1)c1cc2ccc(-c3nccc(Nc4ccc5[nH]ncc5c4)n3)cc2[nH]1 (stereo not drawn)
1 (yes)

Tell me whether pIC50 is at least 7 here: CS(=O)(=O)C1CN(C(=O)c2cc3ccc(-c4nccc(Nc5ccc(-c6cn[nH]c6)cc5)n4)cc3[nH]2)C1
0 (no)

Please tell me: is the molecule O=C(c1cc2ccc(-c3nccc(Nc4ccc(-c5cn[nH]c5)cc4)n3)cc2[nH]1)N1CCC2(CCN2)CC1 at or over 7 in terms of pIC50?
0 (no)

Tell me whether pIC50 is at least 7 here: O=C(C1CC(F)(F)C1)N1CCc2cc(-c3nccc(Nc4ccc5[nH]ncc5c4)n3)ccc2C1
0 (no)

Test whether the molecule O=C(c1cc2ccc(-c3nccc(Nc4ccc(-c5cn[nH]c5)cc4)n3)cc2[nH]1)N1C[C@@H](F)[C@@H](F)C1 records pIC50 of 7 or higher.
1 (yes)

---

Measurement record for ROCK1 (Homo sapiens (Human), UniProt Q13464); quantity recorded: log10 of IC50.
Give log10 of IC50, with IC50 taken in µM.

Check out these entries, answers already filled in.
O=C(c1cc2ccc(-c3nccc(Nc4ccc(-c5cn[nH]c5)cc4)n3)cc2[nH]1)N1CCC(C(F)(F)F)C1 (centres unmarked) [TDI01444] : 0.92
CC(C)NC(=O)c1cc2ccc(-c3nc(Nc4ccc5[nH]ncc5c4)c4ccn(CCN(C)C)c4n3)cc2s1 [TDI01122] : 0.51
Cn1c(C(=O)N2CCC(C(F)(F)F)C2)cc2ccc(-c3nccc(Nc4ccc(-c5cn[nH]c5)cc4)n3)cc21 (centres unmarked) [TDI01506] : 0.86
O=C(c1cc2ccc(-c3nccc(Nc4ccc(-c5cn[nH]c5)cc4)n3)cc2[nH]1)N1CC(C(F)F)C1 [TDI01435] : 0.09
O=C(c1cc2ccc(-c3nc(Nc4ccc5[nH]ncc5c4)c4sccc4n3)cc2[nH]1)N1CCC2(CCNCC2)CC1 [TDI01404] : 0.18
Cn1cc(NC(=O)c2cc3ccc(-c4nccc(Nc5ccc6[nH]ncc6c5)n4)cc3[nH]2)cn1 [TDI01134] : 0.14
O=C(c1cc2ccc(-c3nccc(Nc4ccc(-c5cn[nH]c5)cc4)n3)cc2[nH]1)N1C[C@@H](F)[C@@H](F)C1 [TDI01477] : 0.05
O=C(OC1CC2(CNC2)C1)N1Cc2ccc(-c3nccc(Nc4ccc(-c5cn[nH]c5)cc4)n3)cc2C1 [TDI01634] : 0.31

What measured log10 of IC50 is associated with C[C@@H](CN)NC(=O)c1cc2ccc(-c3nccc(Nc4ccc(-c5cn[nH]c5)cc4)n3)cc2[nH]1 [TDI01856] on ROCK1 (Homo sapiens (Human), UniProt Q13464)?
0.31

Query log10 of IC50 on ROCK1 (Homo sapiens (Human), UniProt Q13464) for CN1CCC(n2cc(NC(=O)c3cc4ccc(-c5nccc(Nc6ccc7[nH]ncc7c6)n5)cc4[nH]3)cn2)CC1 [TDI01316]
Sequence (Q13464 whole entry, species assumed): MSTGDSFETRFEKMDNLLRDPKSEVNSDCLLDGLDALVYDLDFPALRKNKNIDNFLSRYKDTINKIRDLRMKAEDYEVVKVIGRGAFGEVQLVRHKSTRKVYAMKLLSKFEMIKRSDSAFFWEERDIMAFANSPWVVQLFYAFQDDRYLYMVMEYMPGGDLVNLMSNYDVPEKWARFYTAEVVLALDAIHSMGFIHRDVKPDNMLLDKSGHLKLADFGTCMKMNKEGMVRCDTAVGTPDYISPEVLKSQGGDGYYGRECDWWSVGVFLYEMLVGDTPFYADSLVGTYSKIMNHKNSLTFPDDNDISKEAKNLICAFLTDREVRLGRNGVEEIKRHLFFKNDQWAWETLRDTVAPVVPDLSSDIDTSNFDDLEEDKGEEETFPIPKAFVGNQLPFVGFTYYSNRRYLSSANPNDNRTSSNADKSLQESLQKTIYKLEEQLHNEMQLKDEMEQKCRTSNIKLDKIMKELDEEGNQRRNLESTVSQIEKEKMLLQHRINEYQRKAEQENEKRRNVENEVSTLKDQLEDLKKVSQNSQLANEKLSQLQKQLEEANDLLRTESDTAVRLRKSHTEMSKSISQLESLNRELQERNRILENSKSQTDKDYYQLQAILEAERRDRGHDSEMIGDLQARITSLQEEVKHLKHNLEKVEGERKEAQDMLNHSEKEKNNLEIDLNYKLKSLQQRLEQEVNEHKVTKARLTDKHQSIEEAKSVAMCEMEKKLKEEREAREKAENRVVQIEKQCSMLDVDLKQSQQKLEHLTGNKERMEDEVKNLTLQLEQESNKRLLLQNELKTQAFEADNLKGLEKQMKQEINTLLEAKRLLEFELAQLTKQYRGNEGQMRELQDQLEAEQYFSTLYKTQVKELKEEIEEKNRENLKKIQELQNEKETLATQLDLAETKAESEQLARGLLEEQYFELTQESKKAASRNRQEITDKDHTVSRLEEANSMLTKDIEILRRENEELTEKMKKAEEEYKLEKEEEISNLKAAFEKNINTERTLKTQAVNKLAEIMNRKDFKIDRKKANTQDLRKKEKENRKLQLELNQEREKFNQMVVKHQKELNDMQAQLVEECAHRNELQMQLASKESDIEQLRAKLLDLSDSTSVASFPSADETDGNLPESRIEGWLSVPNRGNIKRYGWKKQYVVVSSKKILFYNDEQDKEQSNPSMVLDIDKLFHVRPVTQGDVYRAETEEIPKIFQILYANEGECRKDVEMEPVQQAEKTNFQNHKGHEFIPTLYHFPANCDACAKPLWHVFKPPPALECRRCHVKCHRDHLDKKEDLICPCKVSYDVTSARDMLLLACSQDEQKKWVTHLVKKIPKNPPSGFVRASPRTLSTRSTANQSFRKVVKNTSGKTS
0.00

Hello, I am looking for reported log10 of IC50 with ROCK1 (Homo sapiens (Human), UniProt Q13464) for CN(C(=O)c1cc2ccc(-c3nccc(Nc4ccc(-c5cn[nH]c5)cc4)n3)cc2[nH]1)c1ccncc1 [TDI01421] . Could you help?
0.77

For the record O=C(c1cc2ccc(-c3nccc(Nc4ccc(-c5cn[nH]c5)cc4)n3)cc2[nH]1)N1CC2C(C1)C2(F)F (centres unmarked) [TDI01490] , what value of log10 of IC50 is listed for ROCK1 (Homo sapiens (Human), UniProt Q13464)?
0.35

What reported log10 of IC50 corresponds to O=C(NC1CC1)c1cc2ccc(-c3nccc(Nc4ccc(-c5cn[nH]c5)cc4)n3)cc2[nH]1 [TDI01324] on ROCK1 (Homo sapiens (Human), UniProt Q13464)?
0.24

Observed log10 of IC50 on ROCK1 (Homo sapiens (Human), UniProt Q13464) for CC(CO)NC(=O)c1cc2ccc(-c3nccc(Nc4ccc5[nH]ncc5c4)n3)cc2[nH]1 (centres unmarked) [TDI01176] , please.
-0.28

Provenance of the data: patent US11390609B2
